- System: CCRIS mutagenicity, Ames/micronucleus/aberration tests
- protocolDescription: CCRIS mutagenicity studies
- conditionDescription: Test System: CHINESE HAMSTER V-79; Strain/Indicator: V-79/6-THIOGUANINE; Metabolic Activation: NONE; Method: FLASK ASSAY
Active and inactive are the calls of the source. How the calls were made is not given here.
Outcome (select one): active, inactive

> print(dat)
                                compound  categorylabel
1                       CC(C)OS(C)(=O)=O         active
2  COc1ccc2nc3cc(Cl)ccc3c(NCCCNCCCl)c2c1         active
3                               O=C1CCO1         active

Dear colleague, could you share the recorded outcome for c1ccc(C2CO2)cc1 (centres undefined) when you have a moment?
inactive

* * *

- Test system: CCRIS mutagenicity, Ames/micronucleus/aberration tests
- protocolDescription: CCRIS mutagenicity studies
- conditionDescription: Test System: AMES SALMONELLA TYPHIMURIUM; Strain/Indicator: TA100; Metabolic Activation: RAT LIVER S-9, AROCLOR 1254; Method: STANDARD PLATE
The source made the active and inactive calls. No rule for the calls is given here.
Mark one answer only. Choices: true (1) for active, false (0) for inactive

Reference set (5 entries):
> print(dat)
                                   molecule  categorylabel
1  CC(=O)c1cc2c(cc1C)C(C)(C)C(C)CC2(C)C (stereo unspecified)      false (0)
2         COc1ccc(-c2oc3ccccc3c(=O)c2N)cc1N       true (1)
3       COc1cc(O)c2c(=O)oc3cc(O)cc(C)c3c2c1      false (0)
4  COc1cc(O)c2c(c1)C1=C[C@H](O)[C@@H](O)C[C@]1(C)OC2=O      false (0)
5  COCCN(CCOC)c1cc(NC(C)=O)c(-n2nc3c(Br)cc(N)c(Cl)c3n2)cc1OC       true (1)

# next molecule below
# fetch the recorded call for Cc1ccc(C)c2c1[nH]c1ccccc12 here
false (0)

* * *

- System: CCRIS mutagenicity, Ames/micronucleus/aberration tests
- protocolDescription: CCRIS mutagenicity studies
- conditionDescription: Test System: AMES SALMONELLA TYPHIMURIUM; Strain/Indicator: TA98; Metabolic Activation: RAT LIVER S-9, PHENOBARBITAL AND BETA-NAPHTHOFLAVONE; Method: PREINCUBATION
Active and inactive are the calls of the source. No rule for the calls is given here.
Select the correct class. Options are active, inactive and nothing else.

Query: recorded result category for NC=O in this test
inactive

Please let me know the test result on file for c1ccc(C2CO2)cc1 (configuration not stated) .
inactive

What call does the record list for CC=O ?
inactive

So what was the verdict on BrCCCCBr in this test?
inactive

Recorded test outcome, item Nc1ccc(Oc2ccc(N)cc2)cc1
active

Please state the recorded outcome for this molecule: Sc1ccccc1
inactive

Hi, sorry to bother you, what did the test record for COC(=O)CC(=O)OC ?
inactive

Record lookup: outcome of this test for NCCO ?
inactive

Lab log entry: O=c1n(Cl)c(=O)n(Cl)c(=O)n1Cl — outcome as called in the assay?
inactive

Hey, what did the test say about C1CC[C@H]2O[C@H]2C1 ?
inactive

Hey, what did the test say about O.O.O.O.O.O.[Cl-].[Cl-].[Ni+2] ?
inactive

Entry CNN : call = ?
inactive

* * *

- Test system: CCRIS mutagenicity, Ames/micronucleus/aberration tests
- protocolDescription: CCRIS mutagenicity studies
- conditionDescription: Test System: E. COLI; Strain/Indicator: WP2 UVRA; Metabolic Activation: NONE; Method: SPOT TEST
The source made the active and inactive calls. No rule for the calls is given here.
observationType: mutagenic call

> print(dat)
      smilesrepr      measuredresult
1             Cl  inactive; negative
2  O=[As](O)(O)O  inactive; negative
3   [Cl][Mn][Cl]  inactive; negative

* * *

- Test system: CCRIS mutagenicity, Ames/micronucleus/aberration tests
- protocolDescription: CCRIS mutagenicity studies
- conditionDescription: Test System: AMES SALMONELLA TYPHIMURIUM; Strain/Indicator: TA98; Metabolic Activation: RAT, LIVER, S-9, AROCLOR 1254 (30%); Method: PREINCUBATION
Calls of active or inactive are those of the source. No rule for the calls is given here.
// classify into active, inactive

> print(dat)
                                    molecule  categorylabel
 1  O=[N+]([O-])c1cc([N+](=O)[O-])c2ccccc2c1         active
 2                     CC(=O)Oc1ccccc1C(=O)O       inactive
 3                            Cc1ccc(C#N)cc1       inactive
 4        c1ccc(C2CO2)cc1 (stereo not given)       inactive
 5      c1ccc2c(c1)ccc1cc3c(ccc4ccccc43)cc12         active
 6        c1ccc2cc3c(cc2c1)-c1cccc2cccc-3c12         active
 7                       Oc1c(Cl)ccc(Cl)c1Cl       inactive
 8                Oc1ccc(Nc2ccc3ccccc3c2)cc1       inactive
 9                                CC=C(C)C#N       inactive
10              NC(N)=NC(=O)c1nc(Cl)c(N)nc1N       inactive

I would be grateful if you could indicate the recorded call for CCCCCCCCCCCC(=O)N(CCO)CCO .
inactive

Tell me the assay call for c1ccsc1 please.
inactive

What outcome does the record of this test show for Cc1ccccc1N ?
inactive

Please state the recorded outcome for this molecule: COc1cc(Cl)c(OC)cc1Cl
inactive

Short answer needed: outcome of this test for O=NN1CCOCC1 ?
inactive

How did this test come out for CC(=O)O ?
inactive

Status in this test for O=C(O)CNCP(=O)(O)O ?
inactive

Please share the test call associated with CC(C)CON=O .
inactive

For this molecule, state the assay outcome: O=[N+]([O-])c1ccc(O)c([N+](=O)[O-])c1
inactive

Answer briefly: the call reported for CN(C)CCO in this assay.
inactive

// outcome(item) with item = N#C/C=C/C#N
inactive

Give the logged outcome of this assay for the following molecule: Cc1ccccc1N=Nc1c(O)ccc2ccccc12
inactive

Each molecule tested received a call. Report the one for CCCCC(CC)CN (stereo not given) .
inactive

Which outcome did this test record for the molecule CCCCCCCCOc1ccc(C(=O)O)cc1 ?
inactive

Called result for Cc1ccc2c(c1N)C(=O)c1ccccc1C2=O
active

What classification did CC(CN1c2ccccc2Sc2ccccc21)N(C)C (stereo not given) end up with in this test?
inactive

For this molecule, state the assay outcome: CC1CC(=O)O1 (stereo not given)
active

Outcome? CCSCCC(N)C(=O)O (stereo not given)
inactive

Identify the outcome logged in this assay for the molecule shown: O=c1[nH][nH]c(=O)c2cc([N+](=O)[O-])ccc12
active

What did this assay record as the result for CC(C)(O)C#N ?
inactive

* * *

- Test system: CCRIS mutagenicity, Ames/micronucleus/aberration tests
- protocolDescription: CCRIS mutagenicity studies
- conditionDescription: Test System: E. coli; Strain/Indicator: WP2uvrA/pKM101; Metabolic Activation: Rat, Liver, S9, Sodium phenobarbital and 5,6-benzoflavone (10%); Method: Preincubation
- Description: The CCRIS database contains chemical records with carcinogenicity, mutagenicity, tumor promotion, and tumor inhibition test results. It was developed by the National Cancer Institute (NCI). Data are derived from studies cited in primary journals, current awareness tools, NCI reports, and other sources. Test results have been reviewed by experts in carcinogenesis and mutagenesis. CCRIS provides historical information from the years 1985 - 2011. It is no longer updated. […]
Activity calls are given as the source filed them. No rule for the calls is given here.
Could you please pick one outcome from this set? active, inactive

> print(dat)
   smilesrepr  categorylabel
1  O=C(O)CCCl         active

Could you kindly confirm the outcome this assay logged for CC(=O)CC(=O)Nc1ccccc1C ?
inactive

Please share the test call associated with C1N2CN3CN1CN(C2)C3 .
inactive

Check the results log: what was the call for C=COC(C)=O ?
inactive

* * *

- Test system: CCRIS mutagenicity, Ames/micronucleus/aberration tests
- protocolDescription: CCRIS mutagenicity studies
- conditionDescription: Test System: AMES SALMONELLA TYPHIMURIUM; Strain/Indicator: TA1537; Metabolic Activation: NONE
Calls of active or inactive are those of the source. The rule behind the calls is not given here.
In this exercise, the only acceptable responses are yes (1) (active), no (0) (inactive)

Known results for molecules:
> print(dat)
                                   molecule  categorylabel
1  O=C(Cc1ccccc1)NC(Cc1ccc(Cl)cc1)C(=O)O (stereo unspecified)         no (0)
2  O=C1[C@H]2CC=CC[C@H]2C(=O)N1SC(Cl)(Cl)Cl        yes (1)
3  CC(C)NCC(O)COc1ccc(CC(N)=O)cc1 (stereo unspecified)         no (0)
4  OCCN1CCN(CCCN2c3ccccc3Sc3ccc(C(F)(F)F)cc32)CC1         no (0)
5  OCC(CO)NC1CC(O)(CO)C(O)C(O)C1O (stereo unspecified)         no (0)

Now examine the next entry.
Field: outcome | Entry: CC1=C(C(=O)OCCN(Cc2ccccc2)c2ccccc2)C(c2cccc([N+](=O)[O-])c2)C(P2(=O)OCC(C)(C)CO2)=C(C)N1 (stereo unspecified)
no (0)
